Target: h5-HT1A (Homo sapiens, UniProt P08908)
Construct: expressed in transfected cells; host or cells: HEK 293 cells (membrane preparation)
Sequence (P08908 whole entry): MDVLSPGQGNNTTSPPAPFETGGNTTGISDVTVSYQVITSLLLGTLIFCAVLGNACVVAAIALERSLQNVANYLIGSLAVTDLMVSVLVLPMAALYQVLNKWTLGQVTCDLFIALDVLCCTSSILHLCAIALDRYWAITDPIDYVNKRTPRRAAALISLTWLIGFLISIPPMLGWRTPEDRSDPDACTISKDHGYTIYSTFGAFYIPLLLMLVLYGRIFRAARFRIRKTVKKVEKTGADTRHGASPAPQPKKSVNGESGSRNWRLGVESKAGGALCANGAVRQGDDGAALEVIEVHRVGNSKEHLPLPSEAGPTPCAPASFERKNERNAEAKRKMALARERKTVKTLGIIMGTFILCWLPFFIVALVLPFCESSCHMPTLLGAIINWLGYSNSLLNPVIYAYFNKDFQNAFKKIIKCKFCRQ
Procedure details: Radioligand binding, h5-HT1A receptor ([3H]8-OH-DPAT)
Quantity kind: pKi
Answer as the number alone; pKi is minus log10 of concentration in mol/L.

// worked examples, pKi included
Compound: COc1ccc(OC)c(CC(C)N)c1.Cl (centres unmarked) [2,5-DMA, 2,5-Dimethoxyamphetamine hydrochloride]
pKi: 5.22
//
Compound: CCc1cc(OC)c(CC(C)N)cc1OC (centres unmarked) [DOET, 4-ethyl-2,5-dimethoxyamphetamine]
pKi: 5.24
//
Compound: CCCCc1cc(OC)c(CC(C)N)cc1OC (centres unmarked) [DOBU, 4-butyl-2,5-dimethoxyamphetamine]
pKi: 4.87
//
Compound: CCCCCc1cc(OC)c(CC(C)N)cc1OC (centres unmarked) [DOAM, 4-amyl-2,5-dimethoxyamphetamine]
pKi: 5.07

// query Checklist item: pKi tested on h5-HT1A (Homo sapiens, UniProt P08908), entry CCCc1cc(OC)c(CC(C)N)cc1OC.Cl (centres unmarked) [DOPR] , value?
// result 5.40

* * *

Procedure details: In vivo microdialysis (striatum) with plasma and brain levels after co-administration of DOM and DOAM
Set-up: species or system mouse
Experimental conditions: both sexes, C57BL/6JRj, mouse, brain (forebrain homogenate), subcutaneous; 0.5 mg/kg s.c. each, 30 min post injection, mice; read-out: Brain tissue level after co-administration of DOM and DOAM
Quantity kind: concentration at 30 min (ng/g)
Report the value in ng/g with no unit label.

// query # lookup: concentration at 30 min of COc1cc(CC(C)N)c(OC)cc1C (centres unmarked)
// result 463

// query Data request, read-out concentration at 30 min, for CCCCCc1cc(OC)c(CC(C)N)cc1OC (centres unmarked)
// result 276

* * *

Target: h5-HT2B (Homo sapiens)
Sequence (P41595 whole entry): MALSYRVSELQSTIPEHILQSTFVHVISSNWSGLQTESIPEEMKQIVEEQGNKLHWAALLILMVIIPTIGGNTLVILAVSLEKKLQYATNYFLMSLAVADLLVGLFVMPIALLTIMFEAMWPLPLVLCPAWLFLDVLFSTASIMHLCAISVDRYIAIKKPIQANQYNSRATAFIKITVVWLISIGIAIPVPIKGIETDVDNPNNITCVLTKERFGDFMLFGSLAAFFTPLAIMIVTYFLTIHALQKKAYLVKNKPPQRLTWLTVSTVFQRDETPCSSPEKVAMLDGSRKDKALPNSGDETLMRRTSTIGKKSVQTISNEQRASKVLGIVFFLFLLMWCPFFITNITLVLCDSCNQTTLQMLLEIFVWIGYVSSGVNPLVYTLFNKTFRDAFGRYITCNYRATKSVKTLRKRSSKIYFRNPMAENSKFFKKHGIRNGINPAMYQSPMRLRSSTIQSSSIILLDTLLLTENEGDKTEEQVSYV
Procedure details: IP1 formation (Gαq-mediated signaling), h5-HT2B
Assay type: cell-based
Experimental conditions: read-out: IP1 formation Emax h5-HT2B (95% CI); normalized to maximal effect of 5-HT
Attribute: Emax

Compound: CCCCCc1cc(OC)c(CC(C)N)cc1OC (stereo not drawn)
Target: h5-HT2B (Homo sapiens)
Emax: 106%
--
Compound: CCCCc1cc(OC)c(CC(C)N)cc1OC (stereo not drawn)
Target: h5-HT2B (Homo sapiens)
Emax: 122%
--
Compound: CCc1cc(OC)c(CC(C)N)cc1OC (stereo not drawn)
Target: h5-HT2B (Homo sapiens)
Emax: 95%
--
Compound: COc1ccc(OC)c(CC(C)N)c1.Cl (stereo not drawn) [2,5-DMA, 2,5-Dimethoxyamphetamine hydrochloride]
Target: h5-HT2B (Homo sapiens)
Emax: 94%
--
Compound: CCCc1cc(OC)c(CC(C)N)cc1OC.Cl (stereo not drawn)
Target: h5-HT2B (Homo sapiens)
Emax: 96%

Moving on to another compound below.
// query Returns the measured Emax for the input compound. Input: COc1cc(CC(C)N)c(OC)cc1C (stereo not drawn)
// result 91%

* * *

System: C57BL/6 J mice
Procedure details: Head-twitch response (HTR) dose-response in mice, 30-min session
Format: in vivo, mouse
Experimental conditions: 10 mg/kg s.c.; mean ± SEM
Quantity kind: HTR (count/30 min) (count)
Write it as a number; the unit count goes unstated.

Examples with answers:
Compound: CCCCCc1cc(OC)c(CC(C)N)cc1OC (centres unmarked)
Target: C57BL/6 J mice
HTR (count/30 min) / count: 44.8
//
Compound: CCCc1cc(OC)c(CC(C)N)cc1OC.Cl (centres unmarked)
Target: C57BL/6 J mice
HTR (count/30 min) / count: 21.2
//
Compound: COc1cc(CC(C)N)c(OC)cc1C (centres unmarked)
Target: C57BL/6 J mice
HTR (count/30 min) / count: 88.0
//
Compound: COc1ccc(OC)c(CC(C)N)c1.Cl (centres unmarked) [2,5-DMA, 2,5-Dimethoxyamphetamine hydrochloride]
Target: C57BL/6 J mice
HTR (count/30 min) / count: 23.2

// moving on: another record for HTR (count/30 min)
// query Hello, I am looking for reported HTR (count/30 min) with C57BL/6 J mice for CCCCc1cc(OC)c(CC(C)N)cc1OC (centres unmarked) . Could you help?
// result 69.3
